Hey, just so you know, these numbers are from patent US9422293B2.

This listing pairs compounds with measured pIC50.
biological target: rat TRPV1 (Rattus norvegicus (Rat), UniProt O35433); conditions: read-out: Rat IC50
Sequence (O35433 whole entry): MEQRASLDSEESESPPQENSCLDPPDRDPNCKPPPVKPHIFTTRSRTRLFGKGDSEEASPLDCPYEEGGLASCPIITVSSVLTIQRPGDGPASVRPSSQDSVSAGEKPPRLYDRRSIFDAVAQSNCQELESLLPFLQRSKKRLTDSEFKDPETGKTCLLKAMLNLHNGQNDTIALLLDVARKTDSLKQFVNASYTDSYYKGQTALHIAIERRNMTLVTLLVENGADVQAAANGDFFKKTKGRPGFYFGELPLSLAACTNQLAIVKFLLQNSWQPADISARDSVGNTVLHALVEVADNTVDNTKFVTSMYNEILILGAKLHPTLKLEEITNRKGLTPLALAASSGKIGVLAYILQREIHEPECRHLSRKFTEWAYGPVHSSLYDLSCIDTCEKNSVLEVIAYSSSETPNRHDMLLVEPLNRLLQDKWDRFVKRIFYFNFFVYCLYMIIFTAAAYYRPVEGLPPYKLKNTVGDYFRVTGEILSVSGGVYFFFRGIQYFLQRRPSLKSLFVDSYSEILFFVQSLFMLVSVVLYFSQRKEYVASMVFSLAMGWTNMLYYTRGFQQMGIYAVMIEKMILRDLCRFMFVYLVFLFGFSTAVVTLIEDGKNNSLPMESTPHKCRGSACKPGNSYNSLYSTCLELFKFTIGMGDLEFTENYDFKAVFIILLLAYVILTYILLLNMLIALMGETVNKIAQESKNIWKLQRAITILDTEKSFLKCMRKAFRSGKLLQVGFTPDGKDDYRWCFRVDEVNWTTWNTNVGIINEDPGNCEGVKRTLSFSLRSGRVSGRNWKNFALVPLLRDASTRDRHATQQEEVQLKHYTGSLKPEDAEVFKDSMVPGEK
pIC50: −log10 of the molar value.

{"compound": "CC(C)c1nc2c(c(Nc3ccc(C(C)(O)C(F)(F)F)cc3)n1)CCN(c1ncccc1C(F)(F)F)CC2 (stereo not shown)", "system.tested": "rat TRPV1 (Rattus norvegicus (Rat), UniProt O35433)", "pIC50": 5.87}
{"compound": "CC(C)(C)c1ccc(Nc2ncnc3c2CCN(c2nncc4ccccc24)CC3)cc1", "system.tested": "rat TRPV1 (Rattus norvegicus (Rat), UniProt O35433)", "pIC50": 6.82}
{"compound": "CC(Oc1nc2c(c(Nc3ccc(C(F)(F)F)cc3)n1)CCN(c1ncccc1C(F)(F)F)CC2)C1CCCCC1 (stereo not shown)", "system.tested": "rat TRPV1 (Rattus norvegicus (Rat), UniProt O35433)", "pIC50": 5.69}
{"compound": "Cc1cc(C(F)(F)F)ccc1Nc1nc(N2CCCC2C(C)C)nc2c1CCN(c1ncccc1C(F)(F)F)CC2 (stereo not shown)", "system.tested": "rat TRPV1 (Rattus norvegicus (Rat), UniProt O35433)", "pIC50": 6.74}
